Reference source: patent US20250213555A1

- test target: human Nav 1.8 (Homo sapiens)
- Sequence (Q9Y5Y9 126-399 limits assumed): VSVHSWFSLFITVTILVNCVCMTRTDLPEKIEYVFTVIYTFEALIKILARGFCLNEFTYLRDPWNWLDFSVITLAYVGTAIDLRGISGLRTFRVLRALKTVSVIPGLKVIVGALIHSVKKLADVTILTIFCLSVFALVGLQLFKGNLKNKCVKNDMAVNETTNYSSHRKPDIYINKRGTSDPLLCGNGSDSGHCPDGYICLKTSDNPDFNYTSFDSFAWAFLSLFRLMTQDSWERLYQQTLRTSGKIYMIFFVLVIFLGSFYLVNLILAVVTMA
- Sequence (Q9Y5Y9 660-890 limits assumed): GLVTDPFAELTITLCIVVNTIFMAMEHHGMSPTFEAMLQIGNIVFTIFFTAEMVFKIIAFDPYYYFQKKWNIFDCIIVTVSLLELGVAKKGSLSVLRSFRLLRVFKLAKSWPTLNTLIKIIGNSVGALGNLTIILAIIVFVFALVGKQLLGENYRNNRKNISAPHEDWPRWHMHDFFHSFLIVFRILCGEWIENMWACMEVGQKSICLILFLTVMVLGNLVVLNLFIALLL
- Sequence (Q9Y5Y9 1148-1722 limits assumed): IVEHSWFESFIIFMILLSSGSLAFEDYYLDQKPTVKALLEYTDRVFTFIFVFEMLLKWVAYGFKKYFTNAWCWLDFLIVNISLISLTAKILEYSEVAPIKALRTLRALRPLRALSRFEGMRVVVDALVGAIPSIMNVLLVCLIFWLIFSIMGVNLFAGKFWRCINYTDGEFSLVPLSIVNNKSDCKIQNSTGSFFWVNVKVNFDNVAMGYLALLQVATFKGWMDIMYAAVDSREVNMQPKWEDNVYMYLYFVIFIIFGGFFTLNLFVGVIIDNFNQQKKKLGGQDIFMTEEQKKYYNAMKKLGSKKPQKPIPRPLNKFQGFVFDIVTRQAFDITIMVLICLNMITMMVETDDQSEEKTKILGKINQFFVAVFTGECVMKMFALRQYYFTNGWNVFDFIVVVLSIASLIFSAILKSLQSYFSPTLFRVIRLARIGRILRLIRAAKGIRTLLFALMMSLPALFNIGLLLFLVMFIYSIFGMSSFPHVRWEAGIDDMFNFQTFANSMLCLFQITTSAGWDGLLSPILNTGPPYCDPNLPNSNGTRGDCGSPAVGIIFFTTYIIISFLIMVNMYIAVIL
- assay remarks: E-VIPR assay detecting and measuring Nav inhibition properties
- Format: cell-based
- assay conditions: HEK cells expressing a truncated form of human Nav 1.8; compound numbers without "*" (not marked as run in the presence of human serum); read-out: measured IC50 value in the E-VIPR Assay
measure: IC50

Worked set:
smiles text: C[C@H]1[C@@H](c2ccc(F)c(F)c2OCCN2CC3(COC3)C2)[C@H](C(=O)Nc2ccnc(C(N)=O)c2)O[C@@]1(C)C(F)(F)F
experimental value: < 10 nM

smiles text: CNC(=O)c1cc(NC(=O)[C@@H]2O[C@@](C)(C(F)(F)F)[C@@H](C)[C@H]2c2ccc(F)c(F)c2OC[C@H](C)N2CC3(COC3)C2)ccn1
experimental value: < 10 nM

Next, consider the following compound.
Exam item: Would you mind telling me what IC50 value was observed for C[C@H]1[C@@H](c2ccc(F)c(F)c2OCCC2(C#N)CC2)[C@H](C(=O)Nc2ccnc(C(N)=O)c2)O[C@@]1(C)C(F)(F)F ?
Marked response: < 10 nM
